# Test system: Enterococcus faecalis
# assayMethodText: Antibacterial activity evaluated against Enterococcus faecalis
# Format: functional
Criterion: Log 1/C strictly less than 6. Met: 1. Not met: -1.

Data request: Criterion: Log 1/C strictly below 6. Is it met by "O=C(O)c1cn(C2CC2)c2c([N+](=O)[O-])c(N3CCOCC3)c(F)cc2c1=O" ?
Data returned: 1

Data request: Take the compound "CN1CCC[C@H]2CN(c3c(F)cc4c(=O)c(C(=O)O)cn(C5CC5)c4c3Cl)C[C@H]21" and say whether its Log 1/C is less than 6.
Data returned: -1

Data request: Consider the compound "O=C(O)c1c(=O)c2cc(F)c(N3C[C@@H]4CCCN[C@@H]4C3)c3c2n2c(csc12)CS3" . Is its Log 1/C strictly less than 6?
Data returned: -1

Data request: # strict comparison: is reported Log 1/C < 6? input = CCn1cc(C(=O)O)c(=O)c2cc(F)c(N3CCNCC3)cc21 [NORFLOXACIN]
Data returned: 1

Data request: Is 6 strictly greater than the compound's reported Log 1/C? compound: "O=C(O)c1cn(C2CC2)c2cc(N3CCN(c4ccncc4)CC3)c(F)cc2c1=O"
Data returned: 1

Data request: Determine whether this compound shows Log 1/C lower than 6 (ties excluded): "CO/N=C/Cn1cc(C(=O)O)c(=O)c2cc(F)c(N3C[C@@H]4CCCN(C)[C@@H]4C3)c(F)c21"
Data returned: 1

Data request: Hi there! Is Log 1/C for "O=C(O)c1cn(C2CC2)c2c(Cl)c(N3C[C@@H]4CCCN[C@@H]4C3)c(F)cc2c1=O" below 6, do you know?
Data returned: -1

* * *

# System: Enterococcus faecalis
# assayMethodText: Antibacterial activity evaluated against Enterococcus faecalis
# Format: functional
measuredEndpoint: Log 1/C
// no unit string in output, number only

Documented Log 1/C of "O=C(O)c1cn(C2CC2)c2c(F)c(N3C4CCC3CC4)c(F)cc2c1=O" : 5.26

So, "COc1c(N2CC3=C(CN(C)CC3)C2)c(F)cc2c(=O)c(C(=O)O)cn(C3CC3)c12" ? Its Log 1/C was 6.52

Entry O=C(O)c1cn(C2C[C@@H]2F)c2c(Cl)c(N3C[C@H]4CCCN[C@H]4C3)ccc2c1=O (some centres not stated) ; Log 1/C = 6.51

Looking up "C[C@H]1COc2c(N3C[C@H]4CCCN[C@H]4C3)c(F)cc3c(=O)c(C(=O)O)cn1c23" , I found its Log 1/C recorded as 5.89

The compound listed as "CN1Cc2csc3c(C(=O)O)c(=O)c4cc(F)c(N5CCNCC5)c1c4n23" has a reported Log 1/C of 6.49

Log 1/C recorded for this compound, "C[C@H]1COc2c(N3CCN(C)CC3)c(F)cc3c(=O)c(C(=O)O)cn1c23.C[C@H]1COc2c(N3CCN(C)CC3)c(F)cc3c(=O)c(C(=O)O)cn1c23.O" , is 6.2

Log 1/C for "O=C(O)c1cn(C(CF)CF)c2cc(N3C[C@@H]4CCCN[C@@H]4C3)c(F)cc2c1=O" is 5.01

Documented Log 1/C of "CC(=O)N1CCC[C@H]2CN(c3c(F)cc4c(=O)c(C(=O)O)cn(C5CC5)c4c3Cl)C[C@H]21" : 5.65

Field Log 1/C (entry "C[C@H]1COc2c(N3C[C@@H]4CCCN[C@@H]4C3)c(F)cc3c(=O)c(C(=O)O)cn1c23" ) reads 6.19

Noted for "O=C(O)c1cn(C2CC2)c2c(F)c(N3Cc4cccnc4C3)c(F)cc2c1=O" : its Log 1/C reads 7.73

Memo: "CCn1cc(C(=O)O)c(=O)c2cc(F)c(N3CCN(C)CC3)cc21" , reported Log 1/C: 5.52

Form field Log 1/C, entry "CN1CCN(c2c(F)cc3c(=O)c(C(=O)O)cn4c3c2OC(C(C)(C)C)=C4)CC1" : 4.14

The measured Log 1/C associated with "CN1CCC[C@@H]2CN(c3c(F)cc4c(=O)c(C(=O)O)cn(C5CC5)c4c3Cl)C[C@@H]21" reads 6.23

What the record says about "O=C(O)c1cn(C2CC2)c2c(Cl)c(N3CCCCC3)c(F)cc2c1=O" : Log 1/C is 6.79

// "CNn1cc(C(=O)O)c(=O)c2cc(F)c(N3CCN(C)CC3)cc21" : Log 1/C value = 4.92

The recorded Log 1/C for "CN1CCN(c2cc3c(c(Cl)c2F)c(=O)c(C(=O)O)cn3C2CC2)CC1" is 5.88

Recorded Log 1/C (compound "O=C(O)c1cn(C2CC2)c2cc(N3C[C@@H]4CCCN[C@@H]4C3)c(F)cc2c1=O" ): 6.21

For "CN1CCN(c2nc3c(cc2Cl)c(=O)c(C(=O)O)cn3C2CC2)CC1" the compound record lists Log 1/C as 4.35

// Log 1/C lookup, compound = CCn1cc(C(=O)O)c(=O)c2cc(F)c(N3CCNC(C)C3)c(F)c21 (configuration not stated) , result: 5.24

Item: "O=C(O)c1cn(C2CC2)c2c(F)c(N3C[C@@H]4CCCN[C@@H]4C3)c(F)cc2c1=O" | Log 1/C: 6.84

# Log 1/C of "O=C(O)c1cn2c3c(c(N4CCNCC4)c(F)cc3c1=O)OC=C2COCc1ccccc1" = 4.15

Measured Log 1/C, "O=C(O)c1cn(C2CC2)c2cc(N3C(=O)C=CC3=O)c(F)cc2c1=O" : 3.43

The reported Log 1/C of the compound "O=C(O)c1cn(C2CC2)c2cc(N3CCN(c4ncccn4)CC3)c(F)cc2c1=O" was 4.71

Entry under test: "C[C@@H]1CN(c2c(F)c(N)c3c(=O)c(C(=O)O)cn(C4CC4)c3c2F)C[C@H](C)N1" . Its Log 1/C was 6.2

Reported Log 1/C ( "O=C(O)c1cn(-c2ccc(F)cc2F)c2nc(N3C[C@@H]4CCCN[C@@H]4C3)c(F)cc2c1=O" ) = 6

# Log 1/C of "C#Cc1c(N2C[C@@H]3CCCN[C@@H]3C2)c(F)cc2c(=O)c(C(=O)O)cn(C3CC3)c12" = 7.7

In plain terms, "O=C(O)c1cn(C2CC2)c2cc(N3CCN(C(CO)(CO)CO)CC3)c(F)cc2c1=O" has a documented Log 1/C of 4.13
